endpoint-name: melting point

CCOC(=S)CC/C(C)=C/Cc1c(OC)c(C)c2c(c1OC(N)=O)C(=O)OC2 :: 145 to 147 °C

Provide each entry's melting point from the list below.
1. CC1(C)C(=O)N(c2ccc([N+](=O)[O-])c(C(F)(F)F)c2)C(=O)N1CC=CCN1C(=O)N(c2ccc([N+](=O)[O-])c(C(F)(F)F)c2)C(=O)C1(C)C
2. Nc1cccc(S(=O)(=O)Nc2nncs2)c1
3. CSc1cc(C)nc(SC)c1NC(=O)CSc1nc2cccc(C(F)(F)F)c2o1

Reply:
["191 to 193 °C", "155 to 158 °C", "207 to 209 °C"]
